# assayed_system: both the full-length protein and ΔN-thorProfilin
# run_description: NMR titration; 1H-15N TROSY-HSQC; fixed thorProfilin or ΔN-thorProfilin (200 μM), increasing polyproline … (0, 5, 7 mM in the legend); 25 mM Tris-HCl pH 6.8, 150 mM NaCl; KD from fits of chemical shifts of a few residues
pKd: −log10 of the molar value.
value_type: pKd

Reported pKd, binder PPPAPPLPAAQ [polyproline from VASP (…)] : ____
3.30 to 3.60

Every entry's value here was drawn from paper PMC8410842.
